Target: Phosphatidylinositol 4,5-bisphosphate 3-kinase catalytic subunit delta isoform (Homo sapiens)
Sequence (O00329 whole entry): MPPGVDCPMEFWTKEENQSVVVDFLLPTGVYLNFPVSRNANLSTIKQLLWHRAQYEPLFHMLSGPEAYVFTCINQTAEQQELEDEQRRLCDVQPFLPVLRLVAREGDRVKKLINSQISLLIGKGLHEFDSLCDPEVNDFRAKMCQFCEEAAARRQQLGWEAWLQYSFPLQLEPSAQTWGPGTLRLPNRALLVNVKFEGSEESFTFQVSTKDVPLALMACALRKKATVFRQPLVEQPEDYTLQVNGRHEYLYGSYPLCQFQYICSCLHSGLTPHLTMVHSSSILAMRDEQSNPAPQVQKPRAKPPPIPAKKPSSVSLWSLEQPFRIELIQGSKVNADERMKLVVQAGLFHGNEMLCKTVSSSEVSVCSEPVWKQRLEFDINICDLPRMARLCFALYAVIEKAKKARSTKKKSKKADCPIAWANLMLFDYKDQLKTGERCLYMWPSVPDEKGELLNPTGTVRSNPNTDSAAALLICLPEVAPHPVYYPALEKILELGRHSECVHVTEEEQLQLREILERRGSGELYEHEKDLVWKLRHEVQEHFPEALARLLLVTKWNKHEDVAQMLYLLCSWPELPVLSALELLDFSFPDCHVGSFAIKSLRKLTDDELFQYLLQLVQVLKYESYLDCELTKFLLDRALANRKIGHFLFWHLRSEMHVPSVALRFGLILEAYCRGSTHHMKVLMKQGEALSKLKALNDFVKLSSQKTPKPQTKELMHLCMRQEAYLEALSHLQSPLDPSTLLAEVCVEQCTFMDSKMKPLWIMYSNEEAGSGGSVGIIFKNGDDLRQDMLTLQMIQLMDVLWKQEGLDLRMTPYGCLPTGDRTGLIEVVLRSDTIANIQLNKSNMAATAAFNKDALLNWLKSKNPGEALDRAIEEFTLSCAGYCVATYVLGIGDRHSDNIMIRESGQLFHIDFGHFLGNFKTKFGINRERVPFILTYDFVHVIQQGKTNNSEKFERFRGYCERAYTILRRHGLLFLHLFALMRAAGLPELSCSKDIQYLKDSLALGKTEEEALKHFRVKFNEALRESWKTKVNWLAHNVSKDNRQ
Assay: Inhibition of P110delta (unknown origin) using PIP2:PS as substrate by TR-FRET assay
Field: label. Allowed values: T (IC50 < 700 nM) or F (IC50 >= 700 nM).

Given the entry Cc1nc(NC(=O)N2CCCC2)sc1-c1ccnc(C(C)(C)C)c1 , would its reported IC50 be below 700 nM?
T

Strictly below 700 nM in IC50? CCN(CC)c1nccc(-c2sc(NC(=O)N3CCC[C@H]3C(N)=O)nc2C)n1
T

hey, is IC50 for CC(C)(c1cc(-c2cnc(NC(=O)N3CCC[C@H]3C(N)=O)s2)ccn1)C(F)(F)F lower than 700 nM or not?
F

Just wondering, is IC50 of CC(C)(c1cc(-c2sc(NC(=O)N3CCC[C@H]3C(N)=O)nc2Cl)ccn1)C(F)(F)F below 700 nM?
T

Criterion: IC50 strictly below 700 nM. Is it met by Cc1nc(NC(=O)N2CCC[C@H]2C(N)=O)sc1-c1ccnc(C(C)C)n1 ?
F

Consider the compound Cc1nc(NC(=O)N2CCC[C@H]2C(N)=O)sc1-c1ccnc(C2(C#N)CC2)c1 . Is its IC50 strictly less than 700 nM?
F

Where do the numbers come from? From ChEMBL document CHEMBL2396607.
